# Study Target: T1, EsCas13d, nuclease-dead (Eubacterium siraeum, UniProt B0MS50, R295A;H300A;R849A;H854A)
# T1 sequence: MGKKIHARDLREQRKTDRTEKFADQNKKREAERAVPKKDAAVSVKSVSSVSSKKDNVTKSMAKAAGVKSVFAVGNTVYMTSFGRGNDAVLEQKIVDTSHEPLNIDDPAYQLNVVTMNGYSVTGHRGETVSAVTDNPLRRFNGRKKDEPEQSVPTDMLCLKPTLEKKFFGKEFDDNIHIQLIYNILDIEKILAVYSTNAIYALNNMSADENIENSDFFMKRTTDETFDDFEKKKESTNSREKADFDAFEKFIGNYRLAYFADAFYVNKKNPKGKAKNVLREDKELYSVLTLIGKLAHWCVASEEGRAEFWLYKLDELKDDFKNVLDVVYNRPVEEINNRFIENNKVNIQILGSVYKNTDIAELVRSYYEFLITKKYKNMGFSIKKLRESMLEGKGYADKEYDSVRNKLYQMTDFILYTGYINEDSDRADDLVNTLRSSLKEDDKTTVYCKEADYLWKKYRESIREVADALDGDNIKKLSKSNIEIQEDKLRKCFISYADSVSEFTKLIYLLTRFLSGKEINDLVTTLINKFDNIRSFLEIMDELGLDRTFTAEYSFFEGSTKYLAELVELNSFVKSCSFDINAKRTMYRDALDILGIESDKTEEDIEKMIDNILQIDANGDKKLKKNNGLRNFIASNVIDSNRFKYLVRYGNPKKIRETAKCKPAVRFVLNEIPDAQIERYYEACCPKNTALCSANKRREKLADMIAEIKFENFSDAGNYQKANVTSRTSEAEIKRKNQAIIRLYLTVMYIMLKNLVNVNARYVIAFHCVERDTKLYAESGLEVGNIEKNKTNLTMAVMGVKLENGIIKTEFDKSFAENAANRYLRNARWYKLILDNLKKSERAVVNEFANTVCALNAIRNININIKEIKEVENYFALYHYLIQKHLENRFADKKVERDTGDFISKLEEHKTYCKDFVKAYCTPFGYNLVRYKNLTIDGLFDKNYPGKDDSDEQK
# Protocol Description: crRNA (strand 1, pre-loaded); Mg2+; 40 mM Tris-HCl pH 7.5, 150 mM NaCl, 6 mM MgCl2, 1 mM DTT, 0.1% Tween-20, 0.2 mg/ml BSA; 25 C; 10 min per concentration, then washed
# Condition Context: tags: His6-TwinStrep-SUMO cleaved; N-terminal SNAP kept (SNAP-Surface 488); label: 3' end held by stalled T7 RNA polymerase
pKd: −log10 of the molar value.
Reported values of pKd for individual entries
Experimental Readout: pKd

* target 2 MT 5'PFS AGC 3'PFS UGU (mixed) RNA 1: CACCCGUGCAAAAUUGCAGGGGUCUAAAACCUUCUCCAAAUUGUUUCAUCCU RNA 2: GGGAAUGGAUCCACAUCUACGAAUUCAGCAGGAUGAAACAAUUUGGAGAAGUGUAGAUCGGAAGAGCACACGU | 7.90
* target 1 MT 5'PFS UCC 3'PFS CAU (mixed) RNA 1: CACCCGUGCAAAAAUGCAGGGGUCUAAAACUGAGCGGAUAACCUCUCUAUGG RNA 2: GGGAAUGGAUCCACAUCUACGAAUUCUCCCCAUAGAGAGGUUAUCCGCUCACAUAGAUCGGAAGAGCACACGU | 7.89
* target 2 MT 5'PFS GCG 3'PFS UAU (mixed) RNA 1: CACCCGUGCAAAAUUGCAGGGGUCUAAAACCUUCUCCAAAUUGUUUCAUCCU RNA 2: GGGAAUGGAUCCACAUCUACGAAUUCGCGAGGAUGAAACAAUUUGGAGAAGUAUAGAUCGGAAGAGCACACGU | 7.83
* target 1 A14G,C21A (mixed) RNA 1: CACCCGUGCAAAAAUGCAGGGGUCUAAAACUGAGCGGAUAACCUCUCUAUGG RNA 2: GGGAAUGGAUCCACAUCUACGAAUUCGUACAAUAGAGGGGUUAUCCGCUCACCGAGAUCGGAAGAGCACACGU | 7.34
